Value source: patent US20260295053A1

target: KRAS (G12D) (Homo sapiens, UniProt P01116, G12D); construct: in-cell western with KRAS G12D antibody after 24 h; experiment: KRAS (G12D) cellular degradation assay in AsPC-1 cells; format: cell-based; settings: 24 hours, antibody fluorescence (Odyssey CLX), DC50 half-maximal degradation concentration
Sequence (P01116 1-188 isoform P01116-2 G12D): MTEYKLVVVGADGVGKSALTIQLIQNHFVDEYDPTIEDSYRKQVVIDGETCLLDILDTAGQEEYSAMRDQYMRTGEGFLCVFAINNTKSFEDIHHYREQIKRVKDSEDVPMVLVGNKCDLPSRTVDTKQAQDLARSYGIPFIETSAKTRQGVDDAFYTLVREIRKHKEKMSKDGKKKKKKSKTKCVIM
For each record, write down the corresponding DC50.

Examples from the recorded data:
{"columns": ["compound", "DC50"],
 "data": [
  ["CCn1nccc1-c1ccc([C@H](CO)NC(=O)[C@@H]2C[C@@H](O)CN2C(=O)[C@H](C(C)C)n2cc(-c3ccc(COc4c(-c5c(C)c(F)cc6[nH]ncc56)c(C5CC5)cc5c(N6CC7CNCC7C6)nc(OC[C@H](C)OC)nc45)cc3)nn2)cc1 (stereo partly shown)", "10 to 100 nM"],
  ["CCn1nccc1-c1ccc([C@H](CO)NC(=O)[C@@H]2C[C@@H](O)CN2C(=O)[C@H](C(C)C)n2cc(-c3ccc(COc4c(-c5c(C)c(F)c(F)c6[nH]ncc56)c(C5CC5)cc5c(N6C[C@@H]7C[C@H]6CN7)nc(OC[C@H](C)OC)nc45)cc3)nn2)cc1", "< 10 nM"],
  ["CO[C@H]1C[C@H](Oc2nc(N(C)[C@H]3CCNC3)c3cc(C4CC4)c(-c4c(C)c(F)cc5[nH]ncc45)c(OCc4ccc(-c5cn([C@H](C(=O)N6C[C@H](O)C[C@H]6C(=O)N[C@@H](CO)c6ccc(-c7scnc7C)cc6)C(C)C)nn5)cc4)c3n2)C1", "< 10 nM"],
  ["CCn1nccc1-c1ccc([C@@H](NC(=O)[C@@H]2C[C@@H](O)CN2C(=O)[C@H](C(C)C)n2cc(-c3ccc(COc4c(-c5c(C)c(F)cc6[nH]ncc56)c(C5CC5)cc5c(N(C)[C@H]6CCNC6)nc(OC[C@H]6CCCO6)nc45)cc3)nn2)[C@H](C)O)c2c1CC2", "< 10 nM"],
  ["CO[C@@H](C)COc1nc(N2C[C@H]3CN[C@H](C3)C2)c2cc(C3CC3)c(-c3c(C)c(F)cc4[nH]ncc34)c(OCc3ccc(-c4cn([C@H](C(=O)N5C[C@H](O)C[C@H]5C(=O)N[C@@H](CO)c5ccc(-c6scnc6C)cc5)C(C)C)nn4)cc3)c2n1", "10 to 100 nM"]
]}

Value sought for every listed compound: DC50.
1. CCn1nccc1-c1ccc([C@@H](NC(=O)[C@@H]2C[C@@H](O)CN2C(=O)[C@H](C(C)C)n2cc(-c3ccc(COc4c(-c5c(C)c(F)cc6[nH]ncc56)c(C5CC5)cc5c(N(C)[C@@H]6CCNC6)nc(O[C@H]6C[C@H](OC)C6)nc45)cc3)nn2)[C@H](C)O)c2c1CC2
2. CCn1nccc1-c1ccc([C@H](CO)NC(=O)[C@@H]2C[C@@H](O)CN2C(=O)[C@H](C(C)C)n2cc(-c3ccc(COc4c(-c5c(C)c(F)cc6[nH]ncc56)c(C5CC5)cc5c(N6C[C@H]7C[C@@H]6CN7)nc(OC6CCOCC6)nc45)cc3)nn2)cc1 (stereo in doubt) [Example 10]

Output:
["< 10 nM", "10 to 100 nM"]
